Every entry's value here was drawn from paper PMC5700166.

Molecular target: GST-Aq-NF-kB (Amphimedon queenslandica, UniProt A9Y5G7 2-389)
Sequence: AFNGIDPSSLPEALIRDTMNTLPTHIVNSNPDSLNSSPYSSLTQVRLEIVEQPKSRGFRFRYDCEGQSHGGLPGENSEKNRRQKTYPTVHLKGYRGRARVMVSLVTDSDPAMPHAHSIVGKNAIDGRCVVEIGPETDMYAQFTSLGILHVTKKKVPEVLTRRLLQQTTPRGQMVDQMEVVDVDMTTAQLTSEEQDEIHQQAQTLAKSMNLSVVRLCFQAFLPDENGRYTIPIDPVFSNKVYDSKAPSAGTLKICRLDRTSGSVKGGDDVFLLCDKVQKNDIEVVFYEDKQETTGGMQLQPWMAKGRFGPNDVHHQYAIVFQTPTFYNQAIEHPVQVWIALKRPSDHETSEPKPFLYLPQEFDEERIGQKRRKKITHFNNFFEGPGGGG
Assay: protein-binding microarray (PBM); PBM: ~300 nM protein, 6 mM HEPES pH 7.8, 80 mM KCl, 0.5 mM EDTA, 0.5 mM EGTA, 6% glycerol, 35 ng/ul poly-dIdC, 1% milk, 1 h, room temperature; high values mean tight binding
Conditions: dsDNA, one strand shown
Measured Quantity: binding signal (z-score)
Just the number in z-score, nothing appended.

Below: 5 sequences and their reported binding signal.
{"Seq String": "CCGATTAACATCAGGGGTAAAACTGATGTTAATCGGGTCTTGATTCGCTTGACGCTGCTG", "binding signal [z-score]": 2.73}
{"Seq String": "CCGATTAACATCAGGGGGTGATATGATGTTAATCGGGTCTTGATTCGCTTGACGCTGCTG", "binding signal [z-score]": 4.56}
{"Seq String": "CCGATTAACATCAGGCAATCCCATGATGTTAATCGGGTCTTGATTCGCTTGACGCTGCTG", "binding signal [z-score]": 1.38}
{"Seq String": "CCGATTAACATCAAAAAACCCACTGATGTTAATCGGGTCTTGATTCGCTTGACGCTGCTG", "binding signal [z-score]": 3.61}
{"Seq String": "CCGATTAACATCAAAAAAAACCCTGATGTTAATCGGGTCTTGATTCGCTTGACGCTGCTG", "binding signal [z-score]": 7.35}

Now for the sequence whose binding signal we want.
CCGATTAACATCAGGGAGTTCCATGATGTTAATCGGGTCTTGATTCGCTTGACGCTGCTG tested on GST-Aq-NF-kB (Amphimedon queenslandica, UniProt A9Y5G7 2-389) gave binding signal: 4.38

---

Molecular target: GST-Nv-NF-kB (Cys allele) (Nematostella vectensis, UniProt E5G601 2-411)
Sequence: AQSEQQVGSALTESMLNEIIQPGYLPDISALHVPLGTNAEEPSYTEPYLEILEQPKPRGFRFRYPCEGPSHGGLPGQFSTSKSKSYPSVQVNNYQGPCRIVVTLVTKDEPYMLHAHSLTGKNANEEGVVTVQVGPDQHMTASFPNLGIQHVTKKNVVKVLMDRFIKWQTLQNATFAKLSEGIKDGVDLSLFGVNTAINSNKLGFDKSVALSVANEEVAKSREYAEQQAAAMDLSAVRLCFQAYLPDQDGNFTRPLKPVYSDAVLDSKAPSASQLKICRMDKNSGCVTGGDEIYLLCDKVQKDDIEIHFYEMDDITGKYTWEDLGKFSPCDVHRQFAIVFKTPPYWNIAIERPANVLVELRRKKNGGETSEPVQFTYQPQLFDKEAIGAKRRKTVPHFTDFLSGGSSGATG
Assay: protein-binding microarray (PBM); PBM: ~300 nM protein, 6 mM HEPES pH 7.8, 80 mM KCl, 0.5 mM EDTA, 0.5 mM EGTA, 6% glycerol, 35 ng/ul poly-dIdC, 1% milk, 1 h, room temperature; high values mean tight binding
Conditions: dsDNA, one strand shown
Assign labels as follows, please: condition met for binding signal below 4 z-score; condition not met for binding signal equal to or exceeding 4 z-score.

Please review the entries below; each comes with its answer.
{"Seq String": "CCGATTAACATCAGGGACATCCCTGATGTTAATCGGGTCTTGATTCGCTTGACGCTGCTG", "Label": "condition not met"}
{"Seq String": "CCGATTAACATCAGATACCCCCCTGATGTTAATCGGGTCTTGATTCGCTTGACGCTGCTG", "Label": "condition not met"}
{"Seq String": "CCGATTAACATCACGGTATTTCCTGATGTTAATCGGGTCTTGATTCGCTTGACGCTGCTG", "Label": "condition met"}
{"Seq String": "CCGATTAACATCAAAGTCCCGGGTGATGTTAATCGGGTCTTGATTCGCTTGACGCTGCTG", "Label": "condition met"}

Next sequence, please.
Query :: Lab log: compare recorded binding signal with 4 z-score; is it strictly lower for CCGATTAACATCAAGGAAACCCCTGATGTTAATCGGGTCTTGATTCGCTTGACGCTGCTG ?
Result :: condition not met

---

Readings of binding signal for the listed sequences
Target: GST-Dm-Relish (Drosophila melanogaster, UniProt Q94527 99-473)
Sequence: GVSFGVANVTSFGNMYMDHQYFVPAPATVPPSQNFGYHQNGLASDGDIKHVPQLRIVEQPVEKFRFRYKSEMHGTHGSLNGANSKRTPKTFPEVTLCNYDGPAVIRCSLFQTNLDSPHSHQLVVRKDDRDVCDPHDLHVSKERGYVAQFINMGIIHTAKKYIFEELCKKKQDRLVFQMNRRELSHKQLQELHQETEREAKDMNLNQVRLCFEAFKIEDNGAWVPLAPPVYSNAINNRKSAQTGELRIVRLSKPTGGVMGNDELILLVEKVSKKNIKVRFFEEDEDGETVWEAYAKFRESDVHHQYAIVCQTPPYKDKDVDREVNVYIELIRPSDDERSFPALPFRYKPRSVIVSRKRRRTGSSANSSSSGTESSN
Assay: protein-binding microarray (PBM); PBM: ~300 nM protein, 6 mM HEPES pH 7.8, 80 mM KCl, 0.5 mM EDTA, 0.5 mM EGTA, 6% glycerol, 35 ng/ul poly-dIdC, 1% milk, 1 h, room temperature; high values mean tight binding
Settings: dsDNA, one strand shown
Write it as a number; the unit z-score goes unstated.

Example cases with answers are listed next.
{"Seq String": "CCGATTAACATCAGGAATACCCCTGATGTTAATCGGGTCTTGATTCGCTTGACGCTGCTG", "Obs Value": 6.46}
{"Seq String": "CCGATTAACATCATGGTACTTGTTGATGTTAATCGGGTCTTGATTCGCTTGACGCTGCTG", "Obs Value": 1.26}
{"Seq String": "CCGATTAACATCACAAATACCCCTGATGTTAATCGGGTCTTGATTCGCTTGACGCTGCTG", "Obs Value": 3.75}
{"Seq String": "CCGATTAACATCAGGGGAGAACCTGATGTTAATCGGGTCTTGATTCGCTTGACGCTGCTG", "Obs Value": 5.43}

Kindly review the next sequence as well.
binding signal measured on CCGATTAACATCACCAAAATCCCTGATGTTAATCGGGTCTTGATTCGCTTGACGCTGCTG = 5.42

---

binding signal: recorded values
Molecular target: GST-Nv-NF-kB (Ser allele) (Nematostella vectensis, UniProt A7UNT2 2-411)
Sequence: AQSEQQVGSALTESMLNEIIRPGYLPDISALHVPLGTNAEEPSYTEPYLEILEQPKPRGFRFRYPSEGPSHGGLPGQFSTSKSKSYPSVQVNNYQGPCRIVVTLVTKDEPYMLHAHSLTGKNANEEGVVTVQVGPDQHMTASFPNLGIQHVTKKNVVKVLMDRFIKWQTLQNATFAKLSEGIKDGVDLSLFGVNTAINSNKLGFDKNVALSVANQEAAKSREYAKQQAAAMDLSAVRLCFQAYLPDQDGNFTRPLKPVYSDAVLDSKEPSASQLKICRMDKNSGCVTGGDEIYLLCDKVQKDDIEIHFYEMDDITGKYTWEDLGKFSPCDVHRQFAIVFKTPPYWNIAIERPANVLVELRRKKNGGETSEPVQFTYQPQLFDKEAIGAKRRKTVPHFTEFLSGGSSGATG
Experiment: protein-binding microarray (PBM); PBM: ~300 nM protein, 6 mM HEPES pH 7.8, 80 mM KCl, 0.5 mM EDTA, 0.5 mM EGTA, 6% glycerol, 35 ng/ul poly-dIdC, 1% milk, 1 h, room temperature; Ap Aiptasia and Nv Nematostella (sea anemones) / Co Capsaspora / Aq Amphimedon (sponge) / Dm Drosophila / Hu human; RHD is the Rel homology domain; high values mean tight binding
Details: dsDNA, one strand shown
The reply should be a number in z-score, with the unit left off.

{"Seq String": "CCGATTAACATCAAGGGGAATTATGATGTTAATCGGGTCTTGATTCGCTTGACGCTGCTG", "binding signal / z-score": 11.4}

Field: next sequence
Please fill in: binding signal reported for CCGATTAACATCAACGGTGGGAATGATGTTAATCGGGTCTTGATTCGCTTGACGCTGCTG = 1.15
